# target: human CB2 receptors (Homo sapiens (Human), UniProt P34972)
# Sequence (P34972 whole entry): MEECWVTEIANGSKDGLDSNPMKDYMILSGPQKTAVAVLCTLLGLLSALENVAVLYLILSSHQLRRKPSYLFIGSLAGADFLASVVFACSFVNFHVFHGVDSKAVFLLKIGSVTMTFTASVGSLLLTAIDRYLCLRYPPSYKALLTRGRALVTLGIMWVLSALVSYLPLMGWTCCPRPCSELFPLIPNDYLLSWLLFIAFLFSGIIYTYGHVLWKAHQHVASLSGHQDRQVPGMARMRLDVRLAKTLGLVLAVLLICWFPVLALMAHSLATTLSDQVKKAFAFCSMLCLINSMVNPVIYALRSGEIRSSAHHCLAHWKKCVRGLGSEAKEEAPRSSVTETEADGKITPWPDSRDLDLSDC
# methodDescription: cAMP assay, CHO cells expressing human CB2 receptors
# Format: cell-based
# testContext: functional cAMP assay, CHO cells expressing human CB2; read-out: EC50 CB2 human
pEC50: −log10 of the molar value.
Item-by-item account of pEC50
testReadout: pEC50

| compound | testReadout | reportedValue |
| --- | --- | --- |
| CC(C)(C)c1nc(-c2cc(OCC3(F)COC3)c(C3CC3)cn2)no1 [Example 105] | pEC50 | 7.54 |
| CC(C)(C)c1nc(-c2cc(S(=O)(=O)C3CC3)c(C3CC3)cn2)no1 [Example 80] | pEC50 | 7.32 |
| CC(C)CC1(C)N=C(c2cc(OCC(F)(F)F)c(C3CC3)cn2)NC1=O (stereo not drawn) [Example 69] | pEC50 | 8.05 |
| CC(C)(C)c1cnc(-c2cc(OCC3CC3)c(C3CC3)cn2)o1 [Example 65] | pEC50 | 8.77 |
| COC1CN(c2cc(-c3noc(C(C)(C)C)n3)ncc2C2CC2)C1 [Example 81] | pEC50 | 7.68 |
| CC(C)c1nc(-c2cc(OCC(F)(F)F)c(N3CC(F)(F)C3)cn2)no1 [Example 45] | pEC50 | 7.11 |
| CC(C)(C)c1nc(-c2cc(OC3CCOCC3)c(C3(F)COC3)cn2)no1 [Example 109] | pEC50 | 6.79 |
| CN1CCC[C@H]1COc1cc(-c2noc(C(C)(C)C)n2)ncc1C1CC1 [Example 57] | pEC50 | 7.87 |
| FC(F)(F)COc1cc(-c2noc(C3CC3)n2)ncc1C1CC1 [Example 72] | pEC50 | 7.34 |
| CCC1(C)N=C(c2cc(OCC(F)(F)F)c(C3CC3)cn2)NC1=O (stereo not drawn) [Example 68] | pEC50 | 7.14 |
| CC1(c2nc(-c3cc(OCC4CC4)c(C4CC4)cn3)no2)COC1 [Example 28] | pEC50 | 7.80 |
| CC(C)(C)c1nc(-c2cc(OC3CCOCC3)c(C3CC3)cn2)no1 [Example 63] | pEC50 | 8.37 |
| CC(C)(C)c1nc(-c2cc(OCc3ccc(F)cn3)c(C3CC3)cn2)no1 [Example 118] | pEC50 | 7.46 |
| FC(F)(F)COc1cc(C2=NC3(CCCCC3)CO2)ncc1C1CC1 [Example 31] | pEC50 | 7.71 |
| CN1CCC[C@H]1COc1cc(-c2nc(C(C)(C)C)no2)ncc1C1CC1 [Example 122] | pEC50 | 6.84 |
| CC(C)(C)c1noc(-c2cc(OC3CCOCC3)c(C3CC3)cn2)n1 [Example 121] | pEC50 | 9.00 |
| CCC1(CC)COC(c2cc(OCC(F)(F)F)c(N3CC(F)(F)C3)cn2)=N1 [Example 30] | pEC50 | 8.59 |
| CC1(c2nc(-c3cc(OCC(F)(F)F)c(C4CC4)cn3)no2)COC1 [Example 38] | pEC50 | 6.89 |
| Cc1nc(COc2cc(-c3noc(C(C)(C)C)n3)ncc2C2CC2)c(C)o1 [Example 106] | pEC50 | 6.89 |
| C[C@H](Oc1cc(-c2nc(C(C)(C)C)no2)ncc1C1CC1)C(F)(F)F [Example 52] | pEC50 | 7.88 |
| CC(C)(C)c1noc(-c2cc(OCC3CC3)c(C3CC3)cn2)n1 [Example 6] | pEC50 | 9.00 |
| CCC(COC)Oc1cc(-c2noc(C(C)(C)C)n2)ncc1C1CC1 (stereo not drawn) [Example 84] | pEC50 | 7.30 |
| FC(F)(F)c1nc(-c2cc(OCC3CC3)c(C3CC3)cn2)no1 [Example 19] | pEC50 | 7.86 |
| CC(C)(C)c1nc(-c2cc(OC3CCCNC3)c(C3CC3)cn2)no1 (stereo not drawn) [Example 104] | pEC50 | 7.16 |
| CN1CCCC(Oc2cc(-c3noc(C(C)(C)C)n3)ncc2C2CC2)C1 (stereo not drawn) [Example 99] | pEC50 | 6.50 |
| CC1(c2nc(-c3cc(OCC(F)(F)F)c(N4CC(F)(F)C4)cn3)no2)COC1 [Example 47] | pEC50 | 6.78 |
| CC(C)(C)c1nc(-c2cc(OC3CCCOC3)c(C3CC3)cn2)no1 (stereo not drawn) [Example 88] | pEC50 | 7.28 |
| CC(C)(C)c1nc(-c2cc(OCC3CC3)c(N3CC(F)(F)C3)cn2)no1 [Example 32] | pEC50 | 8.07 |
| CC(C)(C)c1nc(-c2cc(Oc3cccc(S(C)(=O)=O)c3)c(C3CC3)cn2)no1 [Example 108] | pEC50 | 7.16 |
| OCc1nc(-c2cc(OCC3CC3)c(C3CC3)cn2)no1 [Example 18] | pEC50 | 6.96 |
| COC(C)CCOc1cc(-c2noc(C(C)(C)C)n2)ncc1C1CC1 (stereo not drawn) [Example 89] | pEC50 | 7.79 |
| CC1(C)CN=C(c2cc(OCC(F)(F)F)c(C3CC3)cn2)O1 [Example 41] | pEC50 | 7.27 |
| CC(C)(C)c1nc(-c2cc(N3CCC(O)C3)c(C3CC3)cn2)no1 (stereo not drawn) [Example 73] | pEC50 | 7.24 |
| CC(C)(C)c1nc(-c2cc(OCc3ccc(F)cc3)c(C3CC3)cn2)no1 [Example 53] | pEC50 | 8.85 |
| COCc1nc(-c2cc(OCC3CC3)c(C3CC3)cn2)no1 [Example 12] | pEC50 | 7.33 |
| C[C@H](Oc1cc(-c2noc(C(C)(C)C)n2)ncc1C1CC1)C(F)(F)F [Example 48] | pEC50 | 7.72 |
